Source listed as PubChem BioAssay AID1159580.

- ASSAY_NAME: chemical genetic growth profiling, strain panel (AID 1159580);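 further: tested at 20 µM; growth read once vehicle control cultures reached saturation at 30 °C; 1 = growth at the plate median or of vehicle wells; lower values mean less growth of the strain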
- MEASUREMENT_CONDITIONS: S. cerevisiae deletion strains, growth OD, locus YBL061C, strain skt5, hits give low values
The campaign covered roughly 5,500 compounds. About 2,000 (36%) were called active. Another 18% or so got no clear call; they are omitted. This is one part of the list.
Response field label: string, one of fulfilled (normalized growth strictly below 1) or not fulfilled.

Answered cases to consult:
1) CC(=O)O.CC(=O)O.[Cd] ... fulfilled
2) COc1ccc(-c2cc(=O)c3c(OC)c(OC)c(OC)c(OC)c3o2)cc1 ... fulfilled
3) O=c1cc(-c2ccc(O)c(O)c2)oc2ccccc12 ... fulfilled

Now take the following compound into account.
Confirm or reject: normalized growth of CC(C)(Oc1ccc(Cl)cc1)C(=O)O lies strictly below 1
not fulfilled

---

Provide the recorded normalized growth for the entries that follow.
- ASSAY_NAME: chemical genetic growth profiling, strain panel (AID 1159580)
- MEASUREMENT_CONDITIONS: S. cerevisiae deletion strains, growth OD, locus YJL168C, strain set2, hits give low values
Among all 5,500 compounds or so, about 2,000 (36%) were called active. Not shown: some 18% with an inconclusive outcome. Some of the results follow.
Give bare numbers.

// worked examples, normalized growth included
1. CCCCC1C(=O)N(c2ccccc2)N(c2ccccc2)C1=O ... 0.988
2. CN(N=O)C(=O)N[C@@H]1[C@@H](O)[C@H](O)[C@@H](CO)O[C@@H]1O ... 1.01
3. CC1=C2C(=CO[C@H](C)[C@H]2C)C(=O)C(C(=O)O)=C1O ... 0.98
4. NCCc1ccc(O)cc1 ... 1
5. CC1NC(=O)NC1=O (stereo not given) ... 1
6. CC1=NCCc2c1[nH]c1cc(O)ccc21 ... 0.999

Hi! Can you tell me normalized growth for each of these molecules?
1. CC(=O)O[C@@H]1CC2C(C)(C)CCC(=O)[C@]2(C)C2CC[C@@]3(C)[C@H](c4ccoc4)OC(=O)C4OC43[C@@]21C (stereo not given in full)
2. CC(N)Cc1ccc(O)cc1 (stereo not given)
3. C[N+]1(CCCCC[N+]2(C)CCCC2)CCCC1
4. CC(=O)Nc1ccc(O)cc1
5. O=c1c(-c2cc(O)c(O)c(O)c2)coc2cc(O)c(O)c(O)c12
6. COc1cc([C@@H]2c3cc4c(cc3[C@H](O)[C@H]3COC(=O)[C@@H]23)OCO4)cc(OC)c1OC

[0.988, 1.01, 1.01, 0.975, 0.982, 0.989]

Hi! Can you tell me normalized growth for each of these molecules?
1. Nc1ccc(C(=O)O)c(O)c1
2. COc1c2c(cc3c1OCO3)CC[N+](C)=C2
3. C=C1C2CC[C@@]3(C)[C@H](c4ccoc4)OC(=O)C[C@]13O[C@H]1CC(=O)C(C)(C)[C@H](C(O)C(=O)OC)[C@@]21C (stereo not given in full)

1. 1
2. 1.01
3. 1.01

---

Provide the recorded normalized growth for the entries that follow.
- ASSAY_NAME: chemical genetic growth profiling, strain panel (AID 1159580)
- MEASUREMENT_CONDITIONS: S. cerevisiae deletion strains, growth OD, locus YDR069C, strain doa4, hits give low values
In all, about 5,500 compounds went through this assay and about 2,000 (36%) were called active. Another 18% or so got no clear call; they are omitted. The list shows a part of the results.
Give bare numbers.

// worked examples, normalized growth included
1) CC(=O)O[C@H]1C[C@@]2(C)[C@H](c3ccoc3)OC(=O)[C@H]3O[C@]32[C@@]2(C)C1[C@]1(C)C(C[C@H]2OC(C)=O)C(C)(C)[C@H](OC(C)=O)C[C@@H]1OC(C)=O (some centres undefined) ... 0.972
2) COc1cccc(-c2cc(=O)c3ccc(OC)cc3o2)c1 ... 0.96
3) COc1c2c(cc3c1OCO3)CC[N+](C)=C2 ... 1.01

Turning to the following compound.
Consider the compound shown here: CC(=O)Nc1ccc(OC(=O)c2ccccc2O)cc1 What is its recorded normalized growth?
0.999

---

- ASSAY_NAME: chemical genetic growth profiling, strain panel (AID 1159580)
- MEASUREMENT_CONDITIONS: S. cerevisiae deletion strains, growth OD, locus YNL183C, strain NPR1, hits give low values
About 2,000 (36%) of roughly 5,500 compounds were called active. Not shown: some 18% with an inconclusive outcome. The list shows a part of the results.
Provide the recorded normalized growth for the entries that follow.
One number for each entry.

1. CC1=CCc2c(cc3oc(C)cc(=O)c3c2O)OC1 ... 0.92

Hi! Can you tell me normalized growth for each of these compounds?
1. COc1ccc(C2CC(c3ccccc3)=Nc3ccccc3S2)cc1OC (centres undefined)
2. CC[N+]1(C)CCCC(OC(=O)C(O)(c2ccccc2)c2ccccc2)C1 (centres undefined)

0.939
0.942

Consider the compound shown here: CN1CCOC(c2ccccc2)c2ccccc2C1 (centres undefined) What is its recorded normalized growth?
0.945

---

Provide the recorded normalized growth for the entries that follow.
- ASSAY_NAME: chemical genetic growth profiling, strain panel (AID 1159580);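 further: tested at 20 µM; growth read once vehicle control cultures reached saturation at 30 °C; 1 = growth at the plate median or of vehicle wells; lower values mean less growth of the strain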
- MEASUREMENT_CONDITIONS: S. cerevisiae deletion strains, growth OD, locus YPL256C, strain CLN2, hits give low values
Out of some 5,500 compounds screened, about 2,000 (36%) were called active. Roughly 18% stayed inconclusive and do not appear here. The list shows a part of the results.
Numbers only.

// worked examples, normalized growth included
1. CN(C)C(=O)Oc1cc(OC(=O)N(C)C)cc(C(O)CNC(C)(C)C)c1 (centres undefined) ... 0.984
2. COc1cccc(-c2cc(=O)c3cc(OC)ccc3o2)c1 ... 0.982
3. CC(C)(C)C(=O)C(Oc1ccc(Cl)cc1)n1cncn1 (centres undefined) ... 0.357

Turning to the following compound.
Consider the compound shown here: Cc1nc(-c2ccc(C(F)(F)F)cn2)[nH]c(=O)c1Cl What is its recorded normalized growth?
0.72

---

Provide the recorded normalized growth for the entries that follow.
- ASSAY_NAME: chemical genetic growth profiling, strain panel (AID 1159580);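 further: tested at 20 µM; growth read once vehicle control cultures reached saturation at 30 °C; 1 = growth at the plate median or of vehicle wells; lower values mean less growth of the strain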
- MEASUREMENT_CONDITIONS: S. cerevisiae deletion strains, growth OD, locus YKL160W, strain elf1, hits give low values
The campaign covered roughly 5,500 compounds. About 2,000 (36%) were called active. Inconclusive results (about 18%) are left out. Some of the results follow.

// worked examples, normalized growth included
1) CC(=O)O[C@@H]1CC2C(C)(C)[C@H](O)C[C@H](O)[C@]2(C)C2CC[C@@]3(C)[C@H](c4ccoc4)OC(=O)[C@H]4O[C@]43[C@@]21C (some centres not stated) ... 1.02 (inactive)
2) CN(C)C(=O)Oc1cc(OC(=O)N(C)C)cc(C(O)CNC(C)(C)C)c1 (configuration not stated) ... 1.01 (inactive)

Hi! Can you tell me normalized growth for each of these compounds?
1. C=CCc1ccccc1OCC(O)CNC(C)C (configuration not stated)
2. CC[C@]12C=CCN3CC[C@@]4(c5ccc(OC)cc5N(C)C4[C@@](O)(C(=O)OC)[C@@H]1OC(C)=O)[C@@H]32 (some centres not stated)
3. COc1cc2cc[n+]3cc4c(OC)c(OC)ccc4cc3c2cc1OC
4. NCCc1ccc(O)c(O)c1
5. CCCN1C[C@H](CSC)C[C@@H]2c3cccc4[nH]cc(c34)C[C@H]21
6. COc1c(O)cc2c(-c3ccccc3)cc(=O)oc2c1OC
7. CN(C)CC/C=C1/c2ccccc2COc2ccccc21
8. CN(C)CCC=C1c2ccccc2CCc2ccccc21

1 (inactive)
0.995 (inactive)
0.976 (inactive)
1 (inactive)
1.01 (inactive)
0.983 (inactive)
1.01 (inactive)
1.01 (inactive)

Hi! Can you tell me normalized growth for each of these compounds?
1. CC1(C)O[C@@H]2CC3C4CCC5=CC(=O)C=C[C@]5(C)[C@@]4(F)[C@@H](O)C[C@]3(C)[C@]2(C(=O)CO)O1 (some centres not stated)
2. O=C1c2c(O)ccc(O)c2C(=O)c2c(NCCNCCO)ccc(NCCNCCO)c21
3. COc1c2c(cc3c1OCO3)CC[N+](C)=C2
4. CNCCC=C1c2ccccc2CCc2ccccc21
5. COc1c(O)cccc1O
6. CN1CCN2c3ccccc3Cc3ccccc3C2C1 (configuration not stated)
7. O=c1c2ccccc2[se]n1-c1ccccc1

["0.968 (inactive)", "0.858 (active)", "0.977 (inactive)", "0.943 (inactive)", "1.01 (inactive)", "0.989 (inactive)", "0.0672 (active)"]

---

- ASSAY_NAME: chemical genetic growth profiling, strain panel (AID 1159580);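 further: tested at 20 µM; growth read once vehicle control cultures reached saturation at 30 °C; 1 = growth at the plate median or of vehicle wells; lower values mean less growth of the strain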
- MEASUREMENT_CONDITIONS: S. cerevisiae deletion strains, growth OD, locus YML032C, strain rad52
The whole screen tested about 5,500 compounds, of which about 2,000 (36%) were called active. Another 18% or so got no clear call; they are omitted. No stated cut-off is given here; in the data, active means normalized growth mostly below about 0.91 (no sharp cut-off); inconclusive means no clear call, values can overlap the other calls; inactive means mostly above about 0.92. The list shows a part of the results.
Lab note: assign the record to one of 1 (yes) for active, 0 (no) for inactive

Answered cases to consult:
1. CC(=O)Nc1ccc(OC(=O)c2ccccc2O)cc1 ... 1 (yes)
2. COc1c(O)cccc1O ... 0 (no)

Tell me the assay call for O=C1c2c(O)ccc(O)c2C(=O)c2c(NCCNCCO)ccc(NCCNCCO)c21 please.
1 (yes)

Tell me the assay call for CC(=O)[C@H]1CCC2C3CC=C4C[C@@H](O)CC[C@]4(C)C3CC[C@@]21C (some centres not stated) please.
0 (no)

Tell me the assay call for Cc1cc(=O)c2c(O)c3c(cc2o1)OC(C)(C)CC3 please.
0 (no)

Tell me the assay call for CCC(/C=C/[C@@H](C)[C@H]1CCC2C3CC=C4C[C@@H](O)CC[C@]4(C)C3CC[C@@]21C)C(C)C (some centres not stated) please.
0 (no)
